The origin of these recorded values is patent US20100261620A1.

- SYSTEM_NAME: IL-13 (Homo sapiens (Human), UniProt P35225 35-146, limits assumed)
- Sequence (P35225 35-146 limits assumed): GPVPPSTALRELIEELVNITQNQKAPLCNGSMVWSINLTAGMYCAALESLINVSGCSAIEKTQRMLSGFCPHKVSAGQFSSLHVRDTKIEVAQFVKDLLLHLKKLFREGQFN
- PROTOCOL_DETAILS: Biacore
METRIC: koff (s⁻¹)
Quick reminder: number only, in s⁻¹, skip the unit.

M472 (antibody, V domains shown, anti-IL-13, human IgG1) VH: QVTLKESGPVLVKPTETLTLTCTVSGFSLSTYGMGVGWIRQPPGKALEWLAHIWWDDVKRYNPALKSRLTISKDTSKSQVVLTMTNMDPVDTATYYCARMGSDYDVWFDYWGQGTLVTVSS VL: EIVLTQSPATLSLSPGERATLSCRASKSISKYLAWYQQKPGQAPRLLIYSGSTLQSGIPARFSGSGSGTDFTLTISSLEPEDFAVYYCQQPLDSPYTFGQGTKLEIK :: 0.000375

Below: the item to evaluate.
Fill in the blank: the reported koff of M470 (antibody, V domains shown, anti-IL-13, human IgG1) VH: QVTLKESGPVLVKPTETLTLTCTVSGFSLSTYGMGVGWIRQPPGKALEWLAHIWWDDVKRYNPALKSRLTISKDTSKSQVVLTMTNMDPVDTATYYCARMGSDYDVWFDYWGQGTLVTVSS VL: EIVLTQSPATLSLSPGERATLSCRASKSISKYLAWYQQKPGQAPRLLIYSGSTLQSGIPARFSGSGSGTDFTLTISSLEPEDFAVYYCQQHLDSPYTFGQGTKLEIK is ____.
0.000311
